Exercise: for every item that follows, state its recorded Ki.
- target: human recombinant dopamine transporter (DAT) (Homo sapiens (Human))
- protocol details: Radioligand binding assay, dopamine transporter (MDS Pharma)
Answer format: numeric, µM implied, no suffix.

Fill in Ki for record CCOC(=O)C(CC)NC(CC(C)C)C1(c2ccc(Cl)cc2)CCC1 (centres unmarked) [Compound 54b]
0.0452

Look up and report measured Ki for this entry: CCC(NC(CC(C)C)C1(c2ccc(Cl)cc2)CCC1)C(=O)OCC(C)C (centres unmarked) [Compound 54d]
0.294

----------
- target: human recombinant serotonin transporter (SERT) (Homo sapiens (Human))
- protocol details: Radioligand binding assay, serotonin transporter (MDS Pharma)
- Experimental: The monoamine transporters inhibitory activities of selected compounds (54b and 54d) are reported herein. […] The assays were carried out in duplicates and the quantitative data are reported as IC50, Ki, and nH. Where presented, IC50 values were determined by a non-linear, least squares regression analysis using MathIQ™ (ID Business Solutions Ltd. UK). […] Where presented, the Hill coefficient (nH), defining the slope of the competitive binding curve, was calculated using MathIQ™.
Exercise: state measured pIC50 for each of the compounds provided.
Please note pIC50 is a logarithmic value: minus log10 of concentration in mol/L. Answer with that number alone.

Output reported pIC50 of the compound CCOC(=O)C(CC)NC(CC(C)C)C1(c2ccc(Cl)cc2)CCC1 (centres unmarked) [Compound 54b] on human recombinant serotonin transporter (SERT) (Homo sapiens (Human)).
6.85

Answer briefly: pIC50 recorded on human recombinant serotonin transporter (SERT) (Homo sapiens (Human)) for CCC(NC(CC(C)C)C1(c2ccc(Cl)cc2)CCC1)C(=O)OCC(C)C (centres unmarked) [Compound 54d]
6.38

----------
- target: human recombinant serotonin transporter (SERT) (Homo sapiens (Human))
- protocol details: Radioligand binding assay, serotonin transporter (MDS Pharma)
Please respond with reported pKi for every item in the list.
As a rule, pKi stands for the negative log10 of the concentration, concentration in M.

Return pKi (reported value) for this compound: CCOC(=O)C(CC)NC(CC(C)C)C1(c2ccc(Cl)cc2)CCC1 (centres unmarked) [Compound 54b]
7.64

Determine from records and report pKi for CCC(NC(CC(C)C)C1(c2ccc(Cl)cc2)CCC1)C(=O)OCC(C)C (centres unmarked) [Compound 54d]
7.17

----------
- target: human recombinant norepinephrine transporter (NET) (Homo sapiens (Human), UniProt P23975)
- Sequence (P23975 whole entry): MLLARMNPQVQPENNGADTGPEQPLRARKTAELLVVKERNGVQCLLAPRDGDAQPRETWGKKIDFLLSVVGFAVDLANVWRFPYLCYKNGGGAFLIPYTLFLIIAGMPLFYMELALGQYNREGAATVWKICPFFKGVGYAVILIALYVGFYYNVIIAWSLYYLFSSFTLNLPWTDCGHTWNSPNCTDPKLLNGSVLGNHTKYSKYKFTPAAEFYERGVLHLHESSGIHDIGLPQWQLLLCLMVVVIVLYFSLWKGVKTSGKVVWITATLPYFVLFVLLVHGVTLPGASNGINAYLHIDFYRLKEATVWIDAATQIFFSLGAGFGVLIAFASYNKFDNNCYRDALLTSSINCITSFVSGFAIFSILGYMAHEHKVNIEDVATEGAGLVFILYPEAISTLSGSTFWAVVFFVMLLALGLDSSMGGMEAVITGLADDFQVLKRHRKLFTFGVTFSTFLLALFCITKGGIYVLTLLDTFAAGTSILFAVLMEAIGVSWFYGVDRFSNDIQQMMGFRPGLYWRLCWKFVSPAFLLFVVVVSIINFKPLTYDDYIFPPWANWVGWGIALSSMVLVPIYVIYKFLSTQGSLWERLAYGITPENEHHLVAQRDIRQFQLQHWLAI
- protocol details: Radioligand binding assay, norepinephrine transporter (MDS Pharma)
I'd be grateful if you could share measured Ki for these entries.

Give measured Ki for CCOC(=O)C(CC)NC(CC(C)C)C1(c2ccc(Cl)cc2)CCC1 (centres unmarked) [Compound 54b] (human recombinant norepinephrine transporter (NET) (Homo sapiens (Human), UniProt P23975)).
120 nM

State recorded Ki with human recombinant norepinephrine transporter (NET) (Homo sapiens (Human), UniProt P23975), entry CCC(NC(CC(C)C)C1(c2ccc(Cl)cc2)CCC1)C(=O)OCC(C)C (centres unmarked) [Compound 54d] , no comment.
180 nM

----------
- target: human recombinant norepinephrine transporter (NET) (Homo sapiens (Human))
- protocol details: Radioligand binding assay, norepinephrine transporter (MDS Pharma)
readout kind: pIC50
Note: pIC50 values are expressed as the negative base-10 logarithm of concentration in M.

Consider the molecule CCOC(=O)C(CC)NC(CC(C)C)C1(c2ccc(Cl)cc2)CCC1 (centres unmarked) [Compound 54b] and give its recorded pIC50.
6.92

Return value of pIC50 for input CCC(NC(CC(C)C)C1(c2ccc(Cl)cc2)CCC1)C(=O)OCC(C)C (centres unmarked) [Compound 54d] , no commentary.
6.74
